- experimental_target: Programmed cell death protein 1/Programmed cell death 1 ligand 1 (Homo sapiens, UniProt Q15116+Q9NZQ7)
- Sequence (Q15116 whole entry): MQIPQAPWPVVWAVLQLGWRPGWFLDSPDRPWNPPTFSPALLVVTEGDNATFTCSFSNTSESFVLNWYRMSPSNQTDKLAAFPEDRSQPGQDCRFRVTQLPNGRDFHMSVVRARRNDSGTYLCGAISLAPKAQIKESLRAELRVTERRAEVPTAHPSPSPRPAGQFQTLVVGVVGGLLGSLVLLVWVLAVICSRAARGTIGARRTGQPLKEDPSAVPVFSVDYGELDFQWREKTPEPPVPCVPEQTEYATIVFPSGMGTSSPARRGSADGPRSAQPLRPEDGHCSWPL
- Sequence (Q9NZQ7 whole entry): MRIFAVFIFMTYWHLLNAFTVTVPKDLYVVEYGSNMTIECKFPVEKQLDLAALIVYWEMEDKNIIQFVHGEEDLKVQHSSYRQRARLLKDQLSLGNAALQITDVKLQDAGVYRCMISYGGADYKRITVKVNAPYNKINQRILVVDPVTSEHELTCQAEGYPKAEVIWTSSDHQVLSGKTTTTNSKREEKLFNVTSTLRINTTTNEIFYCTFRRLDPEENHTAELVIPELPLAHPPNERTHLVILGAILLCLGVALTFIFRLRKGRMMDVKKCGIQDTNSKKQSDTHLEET
- protocol_details: Inhibition of PD-1/PD-L1 interaction (unknown origin) incubated for 60 min by HTRF assay
With a cut-off of 40 nM, any IC50 strictly below it is called y; any IC50 meeting it or above is called n.

Qu. A record lists "Cc1c(COc2cc(OCc3cccc(C#N)c3)c(CNC[C@H](O)CO)cc2Cl)cccc1-c1cccc2c(Oc3cc(OCc4cccc(C#N)c4)c(CNC[C@H](O)CO)cc3Cl)ncnc12" . Is its IC50 below 40 nM?
Ans. y

Qu. A record lists "CC(=O)NCCNCc1cc(Cl)c(OCc2cccc(-c3cccc4c(Oc5cc(OCc6cccc(C#N)c6)c(CNCCNC(C)=O)cc5Cl)ncnc34)c2C)cc1OCc1cccc(C#N)c1" . Is its IC50 below 40 nM?
Ans. n

Qu. A record lists "Cc1c(COc2cc(OCc3cccc(C#N)c3)c(CNC3CCCC3)cc2Cl)cccc1-c1cccc2c(Oc3cc(OCc4cccc(C#N)c4)c(CNC4CCCC4)cc3Cl)ncnc12" . Is its IC50 below 40 nM?
Ans. n

Qu. A record lists "Cc1c(COc2cc(OCc3cccc(C#N)c3)c(CNC(C)C)cc2Cl)cccc1-c1cccc2c(Oc3cc(OCc4cccc(C#N)c4)c(CNC(C)C)cc3Cl)ncnc12" . Is its IC50 below 40 nM?
Ans. n

Qu. A record lists "Cc1c(COc2cc(OCc3cccc(C#N)c3)c(C=O)cc2Cl)cccc1-c1cccc2c(Oc3cc(OCc4cccc(C#N)c4)c(C=O)cc3Cl)ncnc12" . Is its IC50 below 40 nM?
Ans. n

----------
- experimental_target: Programmed cell death protein 1/Programmed cell death 1 ligand 1 (Homo sapiens, UniProt Q15116+Q9NZQ7)
- protocol_details: Inhibition of PD-1/PD-L1 interaction (unknown origin) incubated for 60 min by HTRF assay
pIC50: −log10 of the molar value.
Note to self: values exactly at 7 are true. So pIC50 at or above 7 is true, below is false.

Previously resolved entries follow.
cpd_smiles=CC(CO)(CO)NCc1cc(Cl)c(Oc2ncnc3c(-c4ccc5c(c4)OCCO5)cccc23)cc1OCc1cccc(C#N)c1 assigned_label=true
cpd_smiles=CCNCc1cc(Cl)c(OCc2cccc(-c3cccc4c(Oc5cc(OCc6cccc(C#N)c6)c(CNCC)cc5Cl)ncnc34)c2C)cc1OCc1cccc(C#N)c1 assigned_label=true
cpd_smiles=Cc1c(COc2cc(OCc3cccc(C#N)c3)c(CNC3CCCCC3)cc2Cl)cccc1-c1cccc2c(Oc3cc(OCc4cccc(C#N)c4)c(CNC4CCCCC4)cc3Cl)ncnc12 assigned_label=false
cpd_smiles=Cc1c(COc2cc(OCc3cccc(C#N)c3)c(CNC(C)(CO)CO)cc2Cl)cccc1-c1cccc2c(Oc3cc(OCc4cccc(C#N)c4)c(CNC(C)(CO)CO)cc3Cl)ncnc12 assigned_label=true
cpd_smiles=Cc1c(COc2cc(OCc3cccc(C#N)c3)c(CO)cc2Cl)cccc1-c1cccc2c(Oc3cc(OCc4cccc(C#N)c4)c(CO)cc3Cl)ncnc12 assigned_label=false

Qu. Could you please find out whether "Cc1c(COc2cc(OCc3cccc(C#N)c3)c(CNC[C@@H](O)CO)cc2Cl)cccc1-c1cccc2c(Oc3cc(OCc4cccc(C#N)c4)c(CNC[C@@H](O)CO)cc3Cl)ncnc12" has pIC50 that meets 7 or exceeds it?
Ans. true

Qu. Could you please find out whether "Cc1c(COc2cc(OCc3cccc(C#N)c3)c(CNCCO)cc2Cl)cccc1-c1cccc2c(Oc3cc(OCc4cccc(C#N)c4)c(CNCCO)cc3Cl)ncnc12" has pIC50 that meets 7 or exceeds it?
Ans. true

Qu. Could you please find out whether "Cc1c(Nc2nccc3cc(CN4CC[C@H](O)C4)cnc23)cccc1-c1cccc(-c2nc3cc(CN4CC[C@H](C(=O)O)C4)cc(C#N)c3o2)c1C" has pIC50 that meets 7 or exceeds it?
Ans. true

Qu. Could you please find out whether "Cc1c(COc2cc(OCc3cccc(C#N)c3)c(CNC(CO)(CO)CO)cc2Cl)cccc1-c1cccc2c(Oc3cc(OCc4cccc(C#N)c4)c(CNC(CO)(CO)CO)cc3Cl)ncnc12" has pIC50 that meets 7 or exceeds it?
Ans. true
